- TEST: gradient 5% acetonitrile 3 min, to 50% in 2 min, to 85% in 15 min, held 3 min, 100 µL/min
- MEASUREMENT_SETUP: column: Zorbax Extend-C18 2.1 x 50 mm; eluents: water / acetonitrile, 0.1% formic acid
Please use the following RP-LC retention time ranges when assigning a class: low: < 700 s; middle: ≥ 700 s and < 800 s; high: ≥ 800 s

>>> answer_label("c1ccc2sc(N3CCN(Cc4ccc5c(c4)OCO5)CC3)nc2c1")
"middle"
>>> answer_label("Cn1ncc2c(N3CCCC3)nc(C(=O)NCc3cccs3)nc21")
"middle"
>>> answer_label("Cc1cccc(-c2noc(Cn3c(=O)n(Cc4cccc(Cl)c4)c(=O)c4sccc43)n2)c1")
"high"
>>> answer_label("O=C(NCC1CC1)c1c(O)c2sccc2n(Cc2ccccc2)c1=O")
"middle"
>>> answer_label("CCCCNC(=O)CN1CCN(C(=O)c2sc3ncccc3c2-n2cccc2)CC1")
"low"
>>> answer_label("O=C1NCCCn2cc(S(=O)(=O)NCc3ccc4c(c3)OCO4)cc21")
"low"
>>> answer_label("COc1cc(-c2cccc(Cl)c2)nc2ccc(NC(C)=O)cc12")
"low"
>>> answer_label("Cc1ccc(-c2cn3ccn(-c4ccc(C)c(C)c4)c(=O)c3n2)cc1")
"high"
>>> answer_label("Cc1cc2c(cc1S(=O)(=O)N1CCCC1C(=O)Nc1ccc(F)cc1Cl)OC(C)C(=O)N2 (stereo unspecified)")
"high"
>>> answer_label("O=S(=O)(c1cccc2c(I)cccc12)N1CCCNCC1")
"low"
>>> answer_label("CCOC(=O)N1CCC(NC(=O)Cn2ccc3ccccc32)CC1")
"middle"
>>> answer_label("CCc1ccc(S(=O)(=O)N2CCC(c3noc(-c4ccccc4C)n3)CC2)cc1")
"high"
>>> answer_label("CN1CCN(CCCNC(=O)c2ccccc2NC(=O)C2=CSCCO2)CC1")
"high"
>>> answer_label("CC(C)n1cc(S(=O)(=O)Nc2cccc(F)c2)c2cccnc21")
"high"
>>> answer_label("O=C(Cn1ncc2c(N3CCN(c4ccccn4)CC3)ncnc21)Nc1ccc(F)cc1F")
"low"
>>> answer_label("CCN1C(=O)c2cc(S(=O)(=O)Nc3cccc(C)c3)ccc2Oc2cccnc21")
"high"
>>> answer_label("CCCNC(=O)C1CCCN(c2nc3ncn(CC(=O)Nc4cc(F)cc(F)c4)c(=O)c3s2)C1 (stereo unspecified)")
"middle"
>>> answer_label("CCCCN1CCN(C(=O)CCc2cc3ccc(C)cc3[nH]c2=O)CC1")
"low"
>>> answer_label("CCOC(=O)N1CCN(C(=O)C2CCC(=O)N(c3ccc(OC)cc3)C2c2ccc(F)cc2)CC1 (stereo unspecified)")
"middle"
>>> answer_label("O=C1C2C=CC=CC2=NC(=S)N1CCN1CCC(=C(c2ccc(F)cc2)c2ccc(F)cc2)CC1 (stereo unspecified)")
"high"
>>> answer_label("Cc1ccc(-n2ncc3c(NCCCN(C)C)ncnc32)cc1C")
"low"
>>> answer_label("Cc1oc2c(c1C(=O)NCC1CCN(Cc3ccc(Cl)cc3)CC1)C1=NCCN1C=N2")
"low"
>>> answer_label("CCc1noc(NC(C)=O)c1-c1ccc(OC)c(S(=O)(=O)Nc2ccc(C)c(Cl)c2)c1")
"high"
>>> answer_label("CC(C)c1ccc(-c2c(N3CCN(c4ccccn4)CC3)c(=O)c2=O)cc1")
"middle"
>>> answer_label("CCOC(=O)C1CCN(CC(O)COC2CCCC2)CC1 (stereo unspecified)")
"low"
>>> answer_label("CCCSc1nc2c(c(=O)n(C)c(=O)n2C)n1C")
"high"
>>> answer_label("CN1CCCc2cc(C(=O)NCc3ccc(F)cc3)sc21")
"high"
>>> answer_label("CS(=O)(=O)N1CCCN(C(=O)c2ccccc2)CC1")
"low"
>>> answer_label("O=C(Nc1ccccc1)C1(CCO)CC12CCOCC2 (stereo unspecified)")
"low"
>>> answer_label("COC(=O)C1=C(CN2CCOCC2)NC(=O)NC1c1ccc(Cl)cc1 (stereo unspecified)")
"low"
>>> answer_label("COC(=O)C(C)n1cccc1-c1nc(-c2ccncc2)no1 (stereo unspecified)")
"high"

Reference for the values: the METLIN SMRT retention time set (Domingo-Almenara et al. 2019)
